Each entry below carries its reported k cat.
- measured-target: NS3 (Hepatitis C virus) (UniProt A3EZJ3)
- Sequence (A3EZJ3 as listed by the source): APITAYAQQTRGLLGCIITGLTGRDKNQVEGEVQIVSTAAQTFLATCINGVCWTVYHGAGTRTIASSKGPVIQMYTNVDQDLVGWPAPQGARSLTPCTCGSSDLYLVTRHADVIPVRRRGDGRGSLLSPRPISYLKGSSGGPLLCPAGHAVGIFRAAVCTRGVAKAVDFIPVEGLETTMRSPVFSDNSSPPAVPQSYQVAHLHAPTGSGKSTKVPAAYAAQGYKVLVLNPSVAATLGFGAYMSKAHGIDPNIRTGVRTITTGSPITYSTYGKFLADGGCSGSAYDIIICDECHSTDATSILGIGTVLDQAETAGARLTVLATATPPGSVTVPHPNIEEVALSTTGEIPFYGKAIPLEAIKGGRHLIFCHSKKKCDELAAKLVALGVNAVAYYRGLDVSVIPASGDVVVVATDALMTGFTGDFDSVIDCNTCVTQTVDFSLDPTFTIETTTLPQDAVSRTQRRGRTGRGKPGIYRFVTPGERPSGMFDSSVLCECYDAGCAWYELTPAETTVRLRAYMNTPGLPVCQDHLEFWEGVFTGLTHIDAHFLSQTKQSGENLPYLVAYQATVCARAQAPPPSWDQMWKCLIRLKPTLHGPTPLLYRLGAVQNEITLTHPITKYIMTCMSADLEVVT
- test-summary: Binding affinity against Hepatitis C virus NS3 protease was calculated as Kcat
- settings: Hepacivirus hominis
Give just the number in s⁻¹; leave the unit off.

Previously resolved entries follow.
Output measured k cat for this item: `CCCN(NC(=O)[C@H]1CCCN1C(=O)[C@@H](NC(=O)[C@@H](NC(=O)[C@H](CC(=O)O)NC(=O)[C@H](CCC(=O)O)NC(C)=O)C(C)C)C(C)C)C(=O)Oc1ccc([N+](=O)[O-])cc1`
0.00833

Output measured k cat for this item: `CCCN(NC(=O)[C@H]1CCCN1C(=O)[C@@H](NC(=O)[C@@H](NC(=O)[C@H](CC(=O)O)NC(=O)[C@H](CCC(=O)O)NC(=O)[C@@H](NC(C)=O)[C@@H](C)O)C(C)C)C(C)C)C(=O)Oc1ccc([N+](=O)[O-])cc1`
0.00833

Output measured k cat for this item: `CCCN(NC(=O)[C@H]1CCCN1C(=O)[C@@H](NC(=O)[C@@H](NC(C)=O)C(C)C)C(C)C)C(=O)Oc1ccc([N+](=O)[O-])cc1`
0.00667

Output measured k cat for this item: CCCC(NC(=O)[C@H]1CCCN1C(=O)[C@@H](NC(=O)[C@@H](NC(=O)[C@H](CC(=O)O)NC(=O)[C@H](CCC(=O)O)NC(=O)[C@@H](NC(=O)[C@H](CC(=O)O)NC(C)=O)[C@@H](C)O)C(C)C)C(C)C)C(=O)Oc1ccc([N+](=O)[O-])cc1 (stereo not given in full)
1.67

Further cases:
Output measured k cat for this item: `CCCN(NC(=O)[C@H]1CCCN1C(=O)[C@@H](NC(=O)[C@@H](NC(=O)[C@H](CC(=O)O)NC(C)=O)C(C)C)C(C)C)C(=O)Oc1ccc([N+](=O)[O-])cc1`
0.00833
